Listing of entries alongside the reported cytotoxicity at 70.5 h.
# protocol.notes: Human HepG2 cell viability assay in 384 well format
# Assay type: toxicity, cell-based
# Parameters: dose 125 nL, time 70.5 hour; concentration not given beside the values
# test.conditions: HepG2 cells, read-out: Inhibition
experimental.endpoint: cytotoxicity at 70.5 h (%)

molecule: CCCNC(=O)c1[nH]nc(C2CC2)c1Br
data.value: -5.95
//
molecule: CCc1nc(CC)n(CC(=O)NCc2ccccc2C)n1
data.value: -10.6
//
molecule: COc1ccc(OC)c(NC(=O)c2c(C)cn(C)c2CC(=O)O)c1
data.value: -5.28
//
molecule: C/C=C(\C)CN1C[C@H](c2cccc(OC)c2)[C@@H](N)C1
data.value: -5.71
//
molecule: CC(C)c1sc(Cl)nc1C(=O)N1CCN(c2ccccn2)CC1
data.value: 29.7
//
molecule: COc1coc(CN2CCCC3(CCC(=O)N(C4CC4)C3)C2)cc1=O (configuration not stated)
data.value: -12.4
//
molecule: COc1c(CNCC(O)c2ccccc2)c(C(C)C)nn1C (configuration not stated)
data.value: -9.73
//
molecule: O=C(Cc1cccnc1)N1CCC2(CC1)CCN(C1CCOCC1)CC2
data.value: -5.53
//
molecule: CCCS(=O)(=O)N1CCC2(CN(c3cnn(C)c3)C(=O)CN2C)C1 (configuration not stated)
data.value: 0.667
//
molecule: CCCc1cc(=O)[nH]c(-c2ccccc2CN(C)CCn2cccn2)n1
data.value: 5.03
//
molecule: Cc1ccc2nc(CSCC(=O)Nc3nnc(C(C)C)s3)cc(=O)n2c1
data.value: -6.09
//
molecule: NC(=O)C1CCN(C(=O)c2ccc(OCc3cscn3)cc2)CC1
data.value: 55.1
//
molecule: COc1cc(N2CC3(CCN(S(=O)(=O)C4CC4)C3)C2)ncn1
data.value: -7.2
//
molecule: COc1c(CNCc2ccnc(N3CCCCC3)c2)c(C)nn1C
data.value: 24.3
//
molecule: CC(=O)N1CCCN(C(=O)CCOc2ccc(C(C)C)cc2)CC1
data.value: 21.2
//
molecule: C[C@H]1C[C@@H]2CCN(C(=O)c3ccccn3)C[C@H]2O1
data.value: -2.22
//
molecule: Cc1cc(N(C)C)nc(C2(C)CCCN2C(=O)c2ccccc2)n1 (configuration not stated)
data.value: -8.94
//
molecule: CCc1cnc(CN(C(C)=O)C2CCN(CC3(O)CCCCC3)C2)o1 (configuration not stated)
data.value: 13.4
//
molecule: Cc1nc(CN2CCC3(CCN(Cc4cnn(C)c4)CC3)C2=O)cs1
data.value: 10.4
//
molecule: COCC(O)CN(C)c1cc(C(F)(F)F)nc(-c2cccnc2)n1 (configuration not stated)
data.value: -1.69
//
molecule: O=C(NCc1ccccc1)c1nnc2ccc(N3CCOCC3)cc2n1
data.value: 4.86
//
molecule: CN(C)C(=O)CN1CCC2(CC1)CC(=O)c1ccc3ccccc3c1O2
data.value: -6.26
//
molecule: FC(F)(F)C1CN(Cc2cccc(-c3ccccn3)c2)CCO1 (configuration not stated)
data.value: -6.31
//
molecule: Cc1nc(C)c(C)c(N(C)CCCc2nccn2C)n1
data.value: -8.93
//
molecule: CCOCC(=O)N1CC[C@H]2OCC[C@@H](c3nnc(C)o3)[C@H]2C1
data.value: 0.355
//
molecule: CCc1cc(C(F)(F)F)n2nc(C3CCCN3C3CCSCC3)cc2n1 (configuration not stated)
data.value: -2.16
//
molecule: CN(CCCc1cnn(C)c1)C(=O)Nc1cccc2[nH]nnc12
data.value: -7.81
//
molecule: Cc1nc(CCN)cc(N2CCOc3ccc(Cl)cc3C2)n1
data.value: -5.61
//
molecule: CCOCCC(=O)N(C)Cc1noc(C(C)C)n1
data.value: 24.4
//
molecule: CCCn1cnc(NC(=O)NCC2CCS(=O)(=O)C2)n1 (configuration not stated)
data.value: 12.9
//
molecule: O=C(CCc1ccc(Cl)s1)N1CCCC(n2cncn2)C1 (configuration not stated)
data.value: 11.3
//
molecule: CC(C)CC(O)C1CCN(Cc2ccc(N(C)C)nc2)CC1 (configuration not stated)
data.value: 23.2
//
molecule: CS(=O)(=O)NCCC(=O)Nc1ccccc1N1CCc2ccccc21
data.value: -22.1
//
molecule: CCNC(=O)[C@@H]1C[C@H](N)CN1C(=O)C1(c2ccc(OC)cc2)CCCC1
data.value: -10.3
//
molecule: CCn1cc(CN2C[C@@H]3CCCN3C[C@@H]2CCSC)c(C)n1
data.value: -22.6
//
molecule: CS(=O)(=O)NCC(Cc1cccc(F)c1)N1CCNC1=O (configuration not stated)
data.value: -13.3
//
molecule: CCC(C#N)NC(=O)COC1CCCCC1 (configuration not stated)
data.value: -13.3
//
molecule: Cc1ccc(C(=O)NCCS(C)(=O)=O)c(=O)[nH]1
data.value: -5.11
//
molecule: O=C(NCCNc1cnccn1)N1CC=C(c2ccccc2)CC1
data.value: -8.49
//
molecule: CCC1CN(C(=O)c2ccccc2N2CCCC2)CCN1C(C)C (configuration not stated)
data.value: -4.31
//
molecule: Cc1ncc(CNCCO)c2cc(C(=O)c3ccc(Br)cc3)oc12
data.value: -18
//
molecule: CN1CCCN(C[C@@H]2CN(c3nc(C(N)=O)cs3)C[C@@H]2CO)CC1
data.value: 4.88
//
molecule: CCCN1CCC(CNC(=O)C2(c3cc(C)cc(C)c3)CCC2)C1 (configuration not stated)
data.value: 16.9
//
molecule: CC(C)n1cc(N2CC(C(=O)N3CCN(C)CC3)CC2=O)cn1 (configuration not stated)
data.value: -10.8
//
molecule: CCC(N)C(=O)N1CCC(OCc2ccc(Cl)c(Cl)c2)CC1 (configuration not stated)
data.value: 8.03
//
molecule: O=C(c1ccccc1F)N1CC(c2nc(C3CC3)no2)C1
data.value: -11.5
//
molecule: O=S(=O)(NCc1cccnc1OC1CCCC1)N1CCCCC1
data.value: 0.259

====

# protocol.notes: Human HepG2 cell viability assay in 384 well format
# Format: toxicity, cell-based
# Design: dose 125 nL, time 70.5 hour; concentration not given beside the values
# test.conditions: HepG2 cells, read-out: Inhibition
Listing of entries alongside the reported cytotoxicity at 70.5 h.
experimental.endpoint: cytotoxicity at 70.5 h

molecule: CCN1C(=O)C2(CCOCC2)c2cc(NC(=O)c3csnn3)ccc21
experimental.endpoint: cytotoxicity at 70.5 h
data.value: 8.75%
--
molecule: CCC(=O)N1CCCCC1c1nc(O)c2c(n1)CN(C(=O)C1CC1)CC2 (configuration not stated)
experimental.endpoint: cytotoxicity at 70.5 h
data.value: -7.02%
--
molecule: CCOc1ccccc1NC(=O)CN(C)Cc1ccccc1Cl
experimental.endpoint: cytotoxicity at 70.5 h
data.value: -0.249%
--
molecule: CCn1cnnc1CNC(=O)N1CCC(C(=O)NC)CC1
experimental.endpoint: cytotoxicity at 70.5 h
data.value: 1.9%
--
molecule: COCCN1C[C@H]2CC[C@@H]1CN(C(=O)c1ccc(Cl)cc1)C2
experimental.endpoint: cytotoxicity at 70.5 h
data.value: -6%
--
molecule: COC(=O)NCCC(=O)NC(C)Cc1ccccc1Br (configuration not stated)
experimental.endpoint: cytotoxicity at 70.5 h
data.value: -7.4%
--
molecule: CCSc1ccccc1C(=O)NCCn1nc(C(F)(F)F)n(C)c1=O
experimental.endpoint: cytotoxicity at 70.5 h
data.value: -4.82%
--
molecule: CC(C)(C)c1nc(CN(CCO)Cc2cc(Br)ccc2F)no1
experimental.endpoint: cytotoxicity at 70.5 h
data.value: -3.27%
--
molecule: CC(C(=O)N1CCOCC1)n1cncn1 (configuration not stated)
experimental.endpoint: cytotoxicity at 70.5 h
data.value: -4.26%
--
molecule: Cn1cc(C[C@H]2[C@@H](O)CCN2C(=O)c2ccc[nH]2)cn1
experimental.endpoint: cytotoxicity at 70.5 h
data.value: -10.8%
--
molecule: Cn1c2c(c(=O)c3ccccc31)CCC(C)(C)O2
experimental.endpoint: cytotoxicity at 70.5 h
data.value: -9.34%
--
molecule: OCC1(Cc2ccc(F)cc2F)CCCN(Cc2ccncc2)C1 (configuration not stated)
experimental.endpoint: cytotoxicity at 70.5 h
data.value: -5.76%
--
molecule: CN(CCc1ccccn1)C(=O)CCC1CCCN(c2ncccn2)C1 (configuration not stated)
experimental.endpoint: cytotoxicity at 70.5 h
data.value: -1.54%
--
molecule: Cc1noc(CN2CCCC2c2noc(C3CC3)n2)n1 (configuration not stated)
experimental.endpoint: cytotoxicity at 70.5 h
data.value: 20.7%
--
molecule: O=S(=O)(c1cccs1)N1CCCn2cnc(CO)c2C1
experimental.endpoint: cytotoxicity at 70.5 h
data.value: -1.4%
--
molecule: O=C(c1cc2ccccc2[nH]1)N1CCCCC1Cn1cccn1 (configuration not stated)
experimental.endpoint: cytotoxicity at 70.5 h
data.value: -1.58%
--
molecule: Cc1ccccc1CCNC(=O)C1CC(=O)N(CC(F)(F)F)C1 (configuration not stated)
experimental.endpoint: cytotoxicity at 70.5 h
data.value: 26.6%
--
molecule: Cc1nc(-c2cn(CCN)nn2)n(-c2ccc(C(F)(F)F)cc2)n1
experimental.endpoint: cytotoxicity at 70.5 h
data.value: 5.79%
--
molecule: O=C(C[C@@H]1COC[C@H]2CN(CC3CC3)C[C@@H]12)NCc1cccnc1
experimental.endpoint: cytotoxicity at 70.5 h
data.value: -11.6%
--
molecule: CCn1cc(NC(=O)C2CCC(=O)N2Cc2ccco2)cn1 (configuration not stated)
experimental.endpoint: cytotoxicity at 70.5 h
data.value: -6.35%
--
molecule: FC(F)(F)CCc1ccnc(N[C@H]2CC[C@H](n3cnnc3)CC2)n1
experimental.endpoint: cytotoxicity at 70.5 h
data.value: -9.96%
--
molecule: CC(C)(C)C(=O)Cn1nc(C2CC2)cc(C(F)(F)F)c1=O
experimental.endpoint: cytotoxicity at 70.5 h
data.value: -0.663%
--
molecule: c1ccc(CN2Cc3nccn3CC(Cn3cncn3)C2)nc1 (configuration not stated)
experimental.endpoint: cytotoxicity at 70.5 h
data.value: 2.19%
--
molecule: CN(Cc1ccccc1O)C(=O)Nc1cc(F)cc(N2CCCC2)c1
experimental.endpoint: cytotoxicity at 70.5 h
data.value: -7.37%
--
molecule: Cc1cn2nc(N3CCCC3Cn3cncn3)sc2n1 (configuration not stated)
experimental.endpoint: cytotoxicity at 70.5 h
data.value: -3.48%
--
molecule: NC(=O)c1cccc2nc([C@H]3CCN(Cc4ccccn4)C3)[nH]c12
experimental.endpoint: cytotoxicity at 70.5 h
data.value: -0.598%
--
molecule: COCC[C@]1(O)CCN(Cc2nc(C)cs2)C[C@H]1C
experimental.endpoint: cytotoxicity at 70.5 h
data.value: 15.3%
--
molecule: CCOC(=O)[C@]12CCCN(Cc3nccs3)C[C@H]1CN(CC(C)C)C2
experimental.endpoint: cytotoxicity at 70.5 h
data.value: -3.1%
--
molecule: O=c1ccn([C@H]2CCN(Cc3ncc[nH]3)CC[C@@H]2O)c(=O)[nH]1
experimental.endpoint: cytotoxicity at 70.5 h
data.value: -4.85%
--
molecule: CN(Cc1ccc2c(c1)OCO2)Cc1nc(-c2ccco2)no1
experimental.endpoint: cytotoxicity at 70.5 h
data.value: -10.9%
--
molecule: Cc1cnn(CCC(=O)N2CCCN(c3ccccc3C#N)CC2)c1
experimental.endpoint: cytotoxicity at 70.5 h
data.value: -1.64%
--
molecule: O=C(NC1CCCN(CCc2ccccc2)C1)c1ccccn1 (configuration not stated)
experimental.endpoint: cytotoxicity at 70.5 h
data.value: -1.94%
--
molecule: NC(=O)C1CCCN1C(=O)c1cc(C2CC2)nc2ccc(F)cc12 (configuration not stated)
experimental.endpoint: cytotoxicity at 70.5 h
data.value: 18.9%
--
molecule: CCCC(=O)NS(=O)(=O)c1ccc(C#N)c(C(F)(F)F)c1
experimental.endpoint: cytotoxicity at 70.5 h
data.value: 1.39%
--
molecule: CC(Cn1cccn1)NC(=O)NCc1ccc(OC2CCCC2)nc1 (configuration not stated)
experimental.endpoint: cytotoxicity at 70.5 h
data.value: 19.5%
--
molecule: CCCS(=O)(=O)N1C[C@H]2C[C@H](C(=O)N3CCN(C)CC3)[C@@H](C1)O2
experimental.endpoint: cytotoxicity at 70.5 h
data.value: 4.46%
--
molecule: Cc1nn(C)c(Cl)c1C1CCCN1C(=O)c1ccc(O)nc1 (configuration not stated)
experimental.endpoint: cytotoxicity at 70.5 h
data.value: 23.1%
--
molecule: CCc1nc(CCNC(=O)Nc2cccc(C(=O)NC)c2C)cs1
experimental.endpoint: cytotoxicity at 70.5 h
data.value: 9.84%
--
molecule: CCN1CCC(NC(=O)NC2CCOc3ccc(Br)cc32)CC1 (configuration not stated)
experimental.endpoint: cytotoxicity at 70.5 h
data.value: -3.03%
--
molecule: CC(C)Oc1cccc(CN(C)C(=O)Nc2cccn(C)c2=O)c1
experimental.endpoint: cytotoxicity at 70.5 h
data.value: 2.82%
--
molecule: Cc1cc(CNC(=O)CCCN2CCCCC2)n(C)n1
experimental.endpoint: cytotoxicity at 70.5 h
data.value: 12.2%
--
molecule: COC(=O)NCC(=O)N(C)Cc1csc(-c2cccs2)n1
experimental.endpoint: cytotoxicity at 70.5 h
data.value: 3.35%
--
molecule: CNC(=O)c1sccc1S(=O)(=O)Nc1ccc(C)cc1
experimental.endpoint: cytotoxicity at 70.5 h
data.value: -1.86%
--
molecule: Cc1cc(C(=O)N(CC2CCCO2)c2ccncc2)c(C)o1 (configuration not stated)
experimental.endpoint: cytotoxicity at 70.5 h
data.value: -9.47%
--
molecule: Cc1cc(C(=O)N2CCCC(n3cccn3)C2)c(C)n1C1CC1 (configuration not stated)
experimental.endpoint: cytotoxicity at 70.5 h
data.value: -2.54%
--
molecule: c1ccc(CNc2nc(N3CCOCC3)nc3nccnc23)cc1
experimental.endpoint: cytotoxicity at 70.5 h
data.value: -12.1%
--
molecule: CS(=O)(=O)CCNC(=O)C1(c2cccc(Cl)c2)CCCCC1
experimental.endpoint: cytotoxicity at 70.5 h
data.value: 17.7%

Value source: ChEMBL document CHEMBL3507680
